pIC50: −log10 of the molar value.
// values below are pIC50; system is human 5-HT2A receptor (Homo sapiens, UniProt P28223)
Sequence (P28223 whole entry): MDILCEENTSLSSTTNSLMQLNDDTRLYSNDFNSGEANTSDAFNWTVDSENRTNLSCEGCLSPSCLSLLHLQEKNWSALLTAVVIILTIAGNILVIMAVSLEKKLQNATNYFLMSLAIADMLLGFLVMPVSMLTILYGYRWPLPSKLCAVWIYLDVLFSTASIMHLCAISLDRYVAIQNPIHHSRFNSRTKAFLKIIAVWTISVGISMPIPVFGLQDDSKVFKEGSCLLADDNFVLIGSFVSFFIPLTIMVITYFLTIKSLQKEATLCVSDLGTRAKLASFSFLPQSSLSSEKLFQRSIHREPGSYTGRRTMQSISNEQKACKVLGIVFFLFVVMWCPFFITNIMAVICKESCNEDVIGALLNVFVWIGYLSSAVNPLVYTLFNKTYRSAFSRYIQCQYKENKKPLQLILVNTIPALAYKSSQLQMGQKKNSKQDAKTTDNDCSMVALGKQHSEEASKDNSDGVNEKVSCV
measurement-label: pIC50

INSERT INTO measurements (compound, sign_qualifier, test_result) VALUES
  ('COc1cccc2c1N(C[C@H]1CCCN1C)CC2 [(R)-I-46]', '=', 5.61),
  ('COc1ccc2c(c1)N(C[C@H]1CCCN1)CC2 [(R)-I-59]', '=', 4.82),
  ('COc1ccc2c(c1)N(C[C@@H]1CCCN1C)CC2 [(S)-I-58]', '<', 4.52),
  ('[2H]C([2H])([2H])N1CCC[C@@H]1C([2H])([2H])N1CCc2ccc(OC)cc21 [(R)-I-57]', '=', 5.10),
  ('[2H]C([2H])([2H])N1CCC[C@@H]1C([2H])([2H])N1CCc2ccccc21 [(R)-I-1]', '=', 5.34),
  ('COc1ccc2c(c1)N(C[C@H]1CCCN1C)CC2 [(R)-I-58]', '=', 5.19),
  ('COc1cccc2c1CCN2C[C@H]1CCCN1C [(R)-I-47]', '<', 4.52),
  ('[2H]C([2H])([2H])Oc1ccc2c(c1)N(C([2H])([2H])[C@H]1CCCN1C([2H])([2H])[2H])CC2 [(R)-I-28]', '=', 5.07),
  ('[2H]C([2H])([2H])N(CCN1CCc2ccc(OC)cc21)C([2H])([2H])[2H] [Compound I-70]', '=', 4.59),
  ('[2H]C([2H])([2H])N(CCN1CCc2ccccc21)C([2H])([2H])[2H] [Compound I-71]', '=', 4.82),
  ('COc1cc2c(cc1OC)N(C[C@H]1CCCN1C)CC2 [(R)-I-34]', '<', 4.52);

###

- study-target: human 5-HT1A receptor (Homo sapiens)
- Sequence (P08908 1-422): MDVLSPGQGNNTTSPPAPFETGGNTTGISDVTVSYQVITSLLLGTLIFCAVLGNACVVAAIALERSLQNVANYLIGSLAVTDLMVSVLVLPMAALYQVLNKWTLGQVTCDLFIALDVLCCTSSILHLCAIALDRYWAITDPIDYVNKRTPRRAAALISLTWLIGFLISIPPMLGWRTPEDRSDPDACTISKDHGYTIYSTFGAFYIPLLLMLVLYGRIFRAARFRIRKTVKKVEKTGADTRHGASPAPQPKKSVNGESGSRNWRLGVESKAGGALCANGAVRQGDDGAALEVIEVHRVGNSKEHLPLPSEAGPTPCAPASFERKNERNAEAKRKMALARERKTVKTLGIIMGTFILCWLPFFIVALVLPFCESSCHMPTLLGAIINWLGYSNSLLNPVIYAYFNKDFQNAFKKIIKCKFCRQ
- assay-method-text: Human 5-HT1A: Functional FLIPR assay (agonist mode)
- test-settings: FLIPR calcium, agonist mode, HTR1A&Gα15-CHO cells; ND: not detected; read-out: h5-HT1A, EC50
pEC50: −log10 of the molar value.
measurement-label: pEC50

INSERT INTO assay_data (compound, test_result) VALUES
  ('[2H]C([2H])([2H])Oc1ccc2c(c1)N(C([2H])([2H])[C@H]1CCCN1C([2H])([2H])[2H])CC2 [(R)-I-28]', 5.63),
  ('COc1ccc2c(c1)N(C[C@H]1CCCN1C)CC2 [(R)-I-58]', 5.69),
  ('[2H]C([2H])([2H])N1CCC[C@@H]1C([2H])([2H])N1CCc2ccc(OC)cc21 [(R)-I-57]', 5.90);

###

- study-target: human 5-HT1A receptor (Homo sapiens)
- Sequence (P08908 1-422): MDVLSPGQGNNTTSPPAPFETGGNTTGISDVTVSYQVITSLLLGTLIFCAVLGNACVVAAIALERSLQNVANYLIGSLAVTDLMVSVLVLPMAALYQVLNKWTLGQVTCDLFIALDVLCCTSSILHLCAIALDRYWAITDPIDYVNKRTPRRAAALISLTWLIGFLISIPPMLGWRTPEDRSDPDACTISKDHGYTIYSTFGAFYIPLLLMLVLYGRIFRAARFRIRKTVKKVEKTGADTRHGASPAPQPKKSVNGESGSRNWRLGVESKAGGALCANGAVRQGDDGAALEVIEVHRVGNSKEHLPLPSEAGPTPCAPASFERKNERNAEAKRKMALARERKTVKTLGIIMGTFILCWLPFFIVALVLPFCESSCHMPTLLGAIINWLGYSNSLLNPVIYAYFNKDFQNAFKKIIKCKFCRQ
Recorded log10 of IC50 values for a group of compounds are listed next.
measurement-label: log10 of IC50 (log10 of the value in nM)

INSERT INTO assay_data (compound, measurement_label, test_result) VALUES
  ('[2H]C([2H])([2H])N1CCC[C@@H]1C([2H])([2H])N1CCc2ccccc21 [(R)-I-1]', 'log10 of IC50', 2.65),
  ('[2H]C([2H])([2H])N1CCC[C@@H]1C([2H])([2H])N1CCc2ccc(OC)cc21 [(R)-I-57]', 'log10 of IC50', 1.00),
  ('COc1cccc2c1N(C[C@H]1CCCN1C)CC2 [(R)-I-46]', 'log10 of IC50', 2.32),
  ('[2H]C([2H])([2H])N(CCN1CCc2ccccc21)C([2H])([2H])[2H]', 'log10 of IC50', 3.21),
  ('COc1ccc2c(c1)N(C[C@H]1CCCN1)CC2 [(R)-I-59]', 'log10 of IC50', 1.93),
  ('[2H]C([2H])([2H])Oc1ccc2c(c1)N(C([2H])([2H])[C@H]1CCCN1C([2H])([2H])[2H])CC2 [(R)-I-28]', 'log10 of IC50', 0.70),
  ('COc1cccc2c1CCN2C[C@H]1CCCN1C [(R)-I-47]', 'log10 of IC50', 4.18),
  ('[2H]C([2H])([2H])N(CCN1CCc2ccc(OC)cc21)C([2H])([2H])[2H]', 'log10 of IC50', 2.29),
  ('COc1cc2c(cc1OC)N(C[C@H]1CCCN1C)CC2 [(R)-I-34]', 'log10 of IC50', 3.89),
  ('COc1ccc2c(c1)N(C[C@H]1CCCN1C)CC2 [(R)-I-58]', 'log10 of IC50', 1.11);

###

- assay-method-text: Plasma stability, mouse
- Type: in vitro ADME
- test-settings: 37° C., 60 min, read-out: Remaining Percentage (%), 60 min
measurement-label: remaining at 1 h (%)

INSERT INTO assay_data (compound, result_unit, test_result) VALUES
  ('COc1cccc2c1N(C[C@H]1CCCN1C)CC2 [(R)-I-46]', '%', 92.4),
  ('COc1ccc2c(c1)N(C[C@H]1CCCN1C)CC2 [(R)-I-58]', '%', 105),
  ('[2H]C([2H])([2H])Oc1ccc2c(c1)N(C([2H])([2H])[C@H]1CCCN1C([2H])([2H])[2H])CC2 [(R)-I-28]', '%', 93.3),
  ('[2H]C([2H])([2H])N1CCC[C@@H]1C([2H])([2H])N1CCc2ccc(OC)cc21 [(R)-I-57]', '%', 100);

###

- study-target: human 5-HT1A receptor (Homo sapiens, UniProt P08908)
- Construct: expressed in transfected cells; host or cells: CHO (HTR1A&Ga15-CHO)
- assay-method-text: Human 5-HT1A: Functional FLIPR assay (agonist mode)
- Assay type: cell-based
- test-settings: @10 μM (head); footnote: curve fitting with activation (%) @ 10 mM with RFU; RFU=Fmax−Fmin
If the reported RFU@10 μM equals or exceeds 200 RFU, assign Satisfied. If not, assign Not satisfied.

INSERT INTO measurements (molecule, discrete_label) VALUES
  ('COc1cccc2c1N(C[C@H]1CCCN1C)CC2 [(R)-I-46]', 'Satisfied'),
  ('COc1ccc2c(c1)N(C[C@H]1CCCN1)CC2 [(R)-I-59]', 'Satisfied'),
  ('COc1ccc2c(c1)N(C[C@H]1CCCN1C)CC2 [(R)-I-58]', 'Satisfied'),
  ('COc1cccc2c1CCN2C[C@H]1CCCN1C [(R)-I-47]', 'Not satisfied'),
  ('[2H]C([2H])([2H])N1CCC[C@@H]1C([2H])([2H])N1CCc2ccc(OC)cc21 [(R)-I-57]', 'Satisfied'),
  ('[2H]C([2H])([2H])N(CCN1CCc2ccccc21)C([2H])([2H])[2H]', 'Not satisfied'),
  ('[2H]C([2H])([2H])N(CCN1CCc2ccc(OC)cc21)C([2H])([2H])[2H]', 'Not satisfied'),
  ('[2H]C([2H])([2H])N1CCC[C@@H]1C([2H])([2H])N1CCc2ccccc21 [(R)-I-1]', 'Not satisfied'),
  ('CN(C)CCc1c[nH]c2cccc(O)c12 [Psilocin, 4-hydroxy-N,N-dimethyltryptamine, reference compound]', 'Not satisfied'),
  ('[2H]C([2H])([2H])Oc1ccc2c(c1)N(C([2H])([2H])[C@H]1CCCN1C([2H])([2H])[2H])CC2 [(R)-I-28]', 'Satisfied'),
  ('COc1cc2c(cc1OC)N(C[C@H]1CCCN1C)CC2 [(R)-I-34]', 'Not satisfied');
